Below is a list of entries, each paired with its recorded Kd value.
Target: T1, huMICB*005 alpha 3-his (human)
T1 construct: whole construct entry: GS, alpha 3 domain, GNS, His8; also called MICB005.His; MICB*005 alpha3 construct
T1 chain: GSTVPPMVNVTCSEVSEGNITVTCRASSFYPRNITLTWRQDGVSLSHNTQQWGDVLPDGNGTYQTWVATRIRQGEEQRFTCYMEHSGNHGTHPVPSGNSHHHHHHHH
Assay: SPR, Biacore 8K, antibody on Protein A chip
PROPERTY: Kd (nM)

- BINDER: "13A9v5 (antibody, IgG1, V domains shown, humanized variant of 13A9) VH: EVQLVQSGAEVKKPGSSVKVSCKASGYAFTNYLIEWVRQAPGQGLEWIGAINPGSGATNYNEKFKDRATLTADKSTNTAYMELSSLRSEDTAVYFCARFLGNYFDNWGQGTLVTVSS VL: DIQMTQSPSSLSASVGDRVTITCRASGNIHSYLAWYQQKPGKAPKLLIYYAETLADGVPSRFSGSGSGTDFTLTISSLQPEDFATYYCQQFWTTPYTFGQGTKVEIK"
  PROPERTY: "Kd"
  VALUE UNIT: "nM"
  VALUE OBSERVED: 3.17
- BINDER: "1D5v1 (antibody, IgG1, V domains shown, humanized variant of 1D5; also called lD5v1) VH: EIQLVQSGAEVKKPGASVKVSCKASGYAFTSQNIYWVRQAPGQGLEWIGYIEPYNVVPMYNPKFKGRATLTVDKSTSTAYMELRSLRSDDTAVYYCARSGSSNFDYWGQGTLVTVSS VL: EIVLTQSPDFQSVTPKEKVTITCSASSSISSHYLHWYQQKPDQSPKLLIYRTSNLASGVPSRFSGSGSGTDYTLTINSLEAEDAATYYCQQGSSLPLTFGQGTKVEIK"
  PROPERTY: "Kd"
  VALUE UNIT: "nM"
  VALUE OBSERVED: 1.96
- BINDER: "1D5 (antibody, V domains shown, mouse variable domains; also called anti-MIC 1D5) VH: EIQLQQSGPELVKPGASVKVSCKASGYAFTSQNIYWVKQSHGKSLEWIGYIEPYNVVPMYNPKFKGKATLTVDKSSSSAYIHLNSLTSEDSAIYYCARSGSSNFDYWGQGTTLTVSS VL: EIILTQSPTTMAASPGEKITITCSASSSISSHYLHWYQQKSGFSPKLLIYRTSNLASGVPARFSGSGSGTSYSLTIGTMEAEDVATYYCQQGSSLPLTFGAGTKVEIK"
  PROPERTY: "Kd"
  VALUE UNIT: "nM"
  VALUE OBSERVED: 0.95

The origin of these recorded values is patent US20200055939A1.
